test system: SK-MEL-5 melanoma; assay: NCI tumour cell line growth inhibition, 48 h
Let's look at some compounds and their measured TGI.

Sample records with TGI:
>  <COMPOUND>
Cc1ccc(NC(=S)C#N)cc1Cl

>  <MEASUREMENT_KIND>
TGI

>  <ENDPOINT_RESULT>
> 100 µM

$$$$
>  <COMPOUND>
O=C(Cc1ccc(OCc2cccc(Cl)c2)cc1)NO

>  <MEASUREMENT_KIND>
TGI

>  <ENDPOINT_RESULT>
> 100 µM

$$$$
>  <COMPOUND>
COc1ccc(-c2nc3ccc([N+](=O)[O-])cc3c(=O)[nH]2)cc1

>  <MEASUREMENT_KIND>
TGI

>  <ENDPOINT_RESULT>
> 100 µM

$$$$
>  <COMPOUND>
COC(=O)Cc1ccc(Oc2nc3ccccc3nc2-c2cccs2)cc1

>  <MEASUREMENT_KIND>
TGI

>  <ENDPOINT_RESULT>
> 100 µM

$$$$
>  <COMPOUND>
COc1cc(OC)c(C#N)c(OC)c1C

>  <MEASUREMENT_KIND>
TGI

>  <ENDPOINT_RESULT>
> 100 µM

$$$$

Query: Please look at this compound and report its TGI: "CC[C@@]1(O)C(=O)OCc2c1cc1n(c2=O)Cc2cc3c([N+](=O)[O-])c(OC)ccc3nc2-1"
Result: 0.285 µM

Query: Please look at this compound and report its TGI: O=NNc1ccc(S(=O)c2ccccc2)cn1 (stereo not drawn)
Result: > 100 µM

Query: Please look at this compound and report its TGI: CC(=O)c1c(-c2ccco2)c(C#N)c(=S)n(C2OC(CO)C(O)C(O)C2O)c1-c1ccccc1 (stereo not drawn)
Result: > 100 µM

Query: Please look at this compound and report its TGI: "CCCCCCCCCCCCCCCCNC(=O)OC(C)C"
Result: 27.8 µM

Query: Please look at this compound and report its TGI: COc1ccc(C2CC(c3ccc4ccccc4c3O)=NN2)cc1OC (stereo not drawn)
Result: > 100 µM

====

test system: OVCAR-8 ovarian; experiment: NCI tumour cell line growth inhibition, 48 h
Let's look at some molecules and their measured TGI.

>  <MOLECULE>
CC1=C(C#N)C2C(=C(C)N1)C(N)=Nc1ccccc12 (stereo not drawn)

>  <MEASUREMENT_KIND>
TGI

>  <ENDPOINT_RESULT>
> 100 µM

$$$$
>  <MOLECULE>
N#CCCN(CCNc1ccccc1)C(=O)Nc1ccc(NC(=O)N(CCC#N)CCNc2ccccc2)cc1

>  <MEASUREMENT_KIND>
TGI

>  <ENDPOINT_RESULT>
> 100 µM

$$$$

Now, please, on to the next molecule.
Query: Give OVCAR-8 ovarian TGI for the following molecule: "COC(=O)Cc1ccc(Oc2nc3ccccc3nc2-c2cccs2)cc1"
Result: > 100 µM

====

tested on: KM12 colon; test: NCI tumour cell line growth inhibition, 48 h
MEASUREMENT_KIND: TGI (µM)
Give the value, in units of µM, as a plain number.

>  <COMPOUND_SMILES>
CC(C)(C)CC(C)(C)c1ccc(OCCSC(=N)N)cc1

>  <MEASUREMENT_TARGET>
KM12 colon

>  <UNITS_SYMBOL>
µM

>  <TGI>
3.05

$$$$
>  <COMPOUND_SMILES>
CCN(CCCNC(=O)Cc1cc(=O)oc2cc(N(C)C)ccc12)CCNc1ccnc2cc(Cl)ccc12

>  <MEASUREMENT_TARGET>
KM12 colon

>  <UNITS_SYMBOL>
µM

>  <TGI>
28.1

$$$$
>  <COMPOUND_SMILES>
Cc1ccc(Nc2nc3c(s2)C(=O)c2ccccc2C3=O)cc1

>  <MEASUREMENT_TARGET>
KM12 colon

>  <UNITS_SYMBOL>
µM

>  <TGI>
3.44

$$$$

Now, please, on to the next molecule.
Query: Please look at this molecule and report its TGI: "O=c1ccc(N=Nc2ccccc2)ccc1Cl"
Result: 32.4

All figures here come from PubChem BioAssay (NCI).
